Target: T1, EsCas13d, nuclease-dead (Eubacterium siraeum, UniProt B0MS50, R295A;H300A;R849A;H854A)
T1 sequence: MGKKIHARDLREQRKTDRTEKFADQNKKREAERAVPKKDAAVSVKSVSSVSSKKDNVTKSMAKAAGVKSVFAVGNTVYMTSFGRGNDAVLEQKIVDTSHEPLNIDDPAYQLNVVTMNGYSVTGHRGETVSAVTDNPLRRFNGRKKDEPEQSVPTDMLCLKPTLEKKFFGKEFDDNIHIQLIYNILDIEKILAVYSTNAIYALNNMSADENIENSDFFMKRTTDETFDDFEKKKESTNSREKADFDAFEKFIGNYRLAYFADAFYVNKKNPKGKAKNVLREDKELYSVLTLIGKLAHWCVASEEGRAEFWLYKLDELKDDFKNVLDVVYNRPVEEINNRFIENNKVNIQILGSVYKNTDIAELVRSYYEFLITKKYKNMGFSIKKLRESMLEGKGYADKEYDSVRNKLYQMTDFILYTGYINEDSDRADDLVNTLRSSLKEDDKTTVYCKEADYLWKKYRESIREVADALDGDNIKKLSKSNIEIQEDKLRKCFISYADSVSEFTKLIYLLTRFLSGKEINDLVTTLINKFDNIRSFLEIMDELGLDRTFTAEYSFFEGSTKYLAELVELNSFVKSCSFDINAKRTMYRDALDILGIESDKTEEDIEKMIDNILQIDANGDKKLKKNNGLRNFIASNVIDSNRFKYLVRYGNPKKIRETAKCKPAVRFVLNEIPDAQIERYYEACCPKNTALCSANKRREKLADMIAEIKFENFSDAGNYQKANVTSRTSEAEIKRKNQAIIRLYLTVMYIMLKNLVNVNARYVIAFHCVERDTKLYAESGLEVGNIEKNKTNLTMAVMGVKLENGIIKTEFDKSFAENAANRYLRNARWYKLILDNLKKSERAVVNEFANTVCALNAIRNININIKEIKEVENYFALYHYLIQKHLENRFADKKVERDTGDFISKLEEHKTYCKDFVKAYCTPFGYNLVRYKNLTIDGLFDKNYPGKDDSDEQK
Experiment: crRNA (strand 1, pre-loaded); Mg2+; 40 mM Tris-HCl pH 7.5, 150 mM NaCl, 6 mM MgCl2, 1 mM DTT, 0.1% Tween-20, 0.2 mg/ml BSA; 25 C; 10 min per concentration, then washed
Details: tags: His6-TwinStrep-SUMO cleaved; N-terminal SNAP kept (SNAP-Surface 488); label: 3' end held by stalled T7 RNA polymerase
Experimental Readout: pKd
Just the number, please; pKd means minus log10 of the concentration in mol/L.

binder="target 2 MT 5'PFS CUU 3'PFS AAC (mixed) RNA 1: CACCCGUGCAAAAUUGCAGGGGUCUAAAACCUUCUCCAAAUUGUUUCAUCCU RNA 2: GGGAAUGGAUCCACAUCUACGAAUUCCUUAGGAUGAAACAAUUUGGAGAAGAACAGAUCGGAAGAGCACACGU" experimental_readout=pKd result_number=8.37

q: # query: pKd of entry target 1 U3A,G5C (mixed) RNA 1: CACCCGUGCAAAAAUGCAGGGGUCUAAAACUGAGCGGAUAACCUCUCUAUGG RNA 2: GGGAAUGGAUCCACAUCUACGAAUUCGUACCAUAGAGAGGUUAUCCCCACACCGAGAUCGGAAGAGCACACGU
a: 7.77

q: Try this binder next: target 1 insA 3' of 19,insC 3' of 15 (mixed) RNA 1: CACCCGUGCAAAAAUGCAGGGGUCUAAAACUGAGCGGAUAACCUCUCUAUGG RNA 2: GGGAAUGGAUCCACAUCUACGAAUUCGUACCAUAAGAGCAGGUUAUCCGCUCACCGAGAUCGGAAGAGCACACGU
a: 7.28

q: Try this binder next: target 1 insU 3' of 15,insG 3' of 2 (mixed) RNA 1: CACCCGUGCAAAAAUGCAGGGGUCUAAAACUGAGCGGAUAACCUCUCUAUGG RNA 2: GGGAAUGGAUCCACAUCUACGAAUUCGUACCAUAGAGUAGGUUAUCCGCUCGACCGAGAUCGGAAGAGCACACGU
a: 8.01

q: Try this binder next: target 2 MT 5'PFS UUG 3'PFS UUC (mixed) RNA 1: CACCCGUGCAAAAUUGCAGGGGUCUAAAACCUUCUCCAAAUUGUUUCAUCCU RNA 2: GGGAAUGGAUCCACAUCUACGAAUUCUUGAGGAUGAAACAAUUUGGAGAAGUUCAGAUCGGAAGAGCACACGU
a: 7.19

q: Try this binder next: target 2 MT 5'PFS GGU 3'PFS AUA (mixed) RNA 1: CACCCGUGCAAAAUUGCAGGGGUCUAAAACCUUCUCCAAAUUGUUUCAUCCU RNA 2: GGGAAUGGAUCCACAUCUACGAAUUCGGUAGGAUGAAACAAUUUGGAGAAGAUAAGAUCGGAAGAGCACACGU
a: 7.83

q: Try this binder next: target 2 MT 5'PFS GUG 3'PFS UAG (mixed) RNA 1: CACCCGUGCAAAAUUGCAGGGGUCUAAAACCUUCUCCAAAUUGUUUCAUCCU RNA 2: GGGAAUGGAUCCACAUCUACGAAUUCGUGAGGAUGAAACAAUUUGGAGAAGUAGAGAUCGGAAGAGCACACGU
a: 7.88

q: Try this binder next: target 3 U2G,A18G (mixed) RNA 1: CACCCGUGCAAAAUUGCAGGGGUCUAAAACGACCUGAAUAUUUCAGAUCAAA RNA 2: GGGAAUGGAUCCACAUCUACGAAUUCGUUUUUGGUCUGAAAUAUUCAGGGCUGCAGAUCGGAAGAGCACACGU
a: 7.23
